# assay-comment: Apparent permeability from apical to basolateral side in human Caco2 cells
# Format: ADME, cell-based
# study-conditions: Caco-2
measured-attribute: Papp A→B (×10⁻⁶ cm/s)

Below: 2 compounds and their reported Papp A→B.
* C[C@H]1Cn2c(nnc2-c2cccnc2)C(=O)N1Cc1cccc(C(F)(F)F)c1Cl | 6.2
* C[C@H]1Cn2c(nnc2-c2ncccn2)C(=O)N1Cc1cccc(C(F)(F)F)c1Cl | 4.4

(I) C[C@H]1Cn2c(nnc2-c2cc[nH]n2)C(=O)N1Cc1cccc(C(F)(F)F)c1Cl
(II) C[C@H]1Cn2c(nnc2-c2cnccn2)C(=O)N1Cc1cccc(C(F)(F)F)c1Cl
Looking at I and II , which one comes out lower in Papp A→B terms? Refer to your chosen item by its label in the answer.
I

The reported measurements were obtained from ChEMBL document CHEMBL3745703.
